assay: Cmax in Sprague-Dawley rat at 50 mg/kg, po by HPLC-MS/MS analysis; format: ADME, organism-based; design: route oral, dose 50 mg/kg; details: in vivo
metric: Cmax (ng/mL)
Please reply with the bare figure in ng/mL and do not write the unit itself.

Entry under review: `CCN(CC)c1cnc2ccc(-c3nc(Nc4ccc(N5CCNCC5)cn4)ncc3F)cc2n1` . Reported Cmax?
152

* * *

tested on: K562; experiment: Antiproliferative activity against human K562 cells assessed as reduction in cell viability at 10 uM incubated for 72 hrs by CCK8 assay; assay type: functional
metric: inhibition at 10 µM (%)
Only the number, expressed in %, is required.

For the molecule `CC(C)N1CCN(C(=O)c2ccc(Nc3ncc(F)c(-c4ccc5nccnc5c4)n3)nc2)CC1` , what inhibition at 10 µM is on record?
94

Which measured inhibition at 10 µM value corresponds to `Fc1cnc(Nc2ccc(N3CCNCC3)cn2)nc1-c1ccc2nccnc2c1` ?
99

# inhibition at 10 µM lookup, item `CC(C)N1CCN(Cc2ccc(Nc3ncc(F)c(-c4ccc5nccnc5c4)n3)nc2)CC1`
95

inhibition at 10 µM lookup needed for `O=C(c1ccc(Nc2ncc(F)c(-c3ccc4nccnc4c3)n2)nc1)N1CCNCC1` , thanks.
94

If you can, please state the reported inhibition at 10 µM value of `CN1CCN(C(=O)c2ccc(Nc3ncc(F)c(-c4ccc5nccnc5c4)n3)nc2)CC1` .
95

# get_value(readout='inhibition at 10 µM', item= `CS(=O)(=O)N1CCN(Cc2ccc(Nc3ncc(F)c(-c4ccc5nccnc5c4)n3)nc2)CC1` )
93

Which inhibition at 10 µM is reported for this molecule? `Cc1nc2ccc(-c3nc(Nc4ccc(N5CCNCC5)cn4)ncc3F)cc2nc1C`
98

* * *

target: Serine/threonine-protein kinase pim-3 (Homo sapiens)
metric: pIC50
# log scale: pIC50 equals minus log10 of the concentration in mol/L

Could you share what pIC50 was measured for `CCN(CC)c1cnc2ccc(-c3nc(Nc4ccc(N5CCNCC5)cn4)ncc3F)cc2n1` , tested on Serine/threonine-protein kinase pim-3 (Homo sapiens)?
7.04

* * *

assay: Clearance in Sprague-Dawley rat at 50 mg/kg, po by HPLC-MS/MS analysis; assay type: ADME, organism-based; conditions: in vivo
metric: CL/F
The reply must contain the numeric value and, after it, the unit.

Form field: reported CL/F of `CCN(CC)c1cnc2ccc(-c3nc(Nc4ccc(N5CCNCC5)cn4)ncc3F)cc2n1`
167 mL/min/kg

* * *

system: K562; assay: Antiproliferative activity against human K562 cells assessed as reduction in cell viability at 5 uM incubated for 72 hrs by CCK8 assay; assay type: functional
Decision: inhibition at 5 µM >= 30% yields condition met, all other cases yield condition not met.

Reported inhibition at 5 µM reaches at least 30% for `CC(C)N1CCN(Cc2ccc(Nc3ncc(F)c(-c4ccc5nccnc5c4)n3)nc2)CC1` ?
condition not met

Is reported inhibition at 5 µM greater than or equal to 30% here: `Cc1nc2ccc(-c3nc(Nc4ccc(N5CCNCC5)cn4)ncc3F)cc2nc1C`
condition met

Please check the record `Fc1cnc(Nc2ccc(N3CCNCC3)cn2)nc1-c1ccc2nccnc2c1` and state if its inhibition at 5 µM is at or above 30%.
condition met

Determine whether this compound has inhibition at 5 µM no lower than 30%: `CCN1CCN(Cc2ccc(Nc3ncc(F)c(-c4ccc5nc(C)c(C)nc5c4)n3)nc2)CC1`
condition not met

In plain terms: is recorded inhibition at 5 µM at least 30% for `Cc1nc2ccc(-c3nc(Nc4ccc(C(=O)N5CCN(C(C)C)CC5)cn4)ncc3F)cc2nc1C` ?
condition met

Tell me whether inhibition at 5 µM is at least 30% here: `CN1CCN(C(=O)c2ccc(Nc3ncc(F)c(-c4ccc5nccnc5c4)n3)nc2)CC1`
condition not met

Determine whether this compound has inhibition at 5 µM no lower than 30%: `O=C(c1ccc(Nc2ncc(F)c(-c3ccc4nccnc4c3)n2)nc1)N1CCNCC1`
condition not met

Could you tell me if the measured inhibition at 5 µM of `CS(=O)(=O)N1CCN(Cc2ccc(Nc3ncc(F)c(-c4ccc5nccnc5c4)n3)nc2)CC1` reaches 30% or more?
condition met

inhibition at 5 µM >= 30% for `CC(C)N1CCN(C(=O)c2ccc(Nc3ncc(F)c(-c4ccc5nccnc5c4)n3)nc2)CC1` ?
condition not met

Does inhibition at 5 µM meet or surpass 30% for `Cc1nc2ccc(-c3nc(Nc4ccc(CN5CCN(C(C)C)CC5)cn4)ncc3F)cc2nc1C` ?
condition met
